System: SF-295
assay: Cytotoxicity against human SF295 cells
Type: functional, cell-based
property: IC50 (nM)
Give your result in nM as a bare value.

Fill in reported IC50 for this entry: CC/C=C/[C@H](CC)C/C=C/[C@@]1(CC)C[C@H](CC)[C@H](CC(=O)O)OO1 [PLAKORTIDE M] 1800

Now consider a different compound.
Identify the reported IC50 for the following entry. CC/C=C/[C@H](CC)C/C(=C/[C@@]1(CC)C[C@H](CC)[C@H](CC(=O)O)OO1)CC [PLAKORTIDE N] 300

* * *

Below, each entry is listed alongside its reported pIC50.
Tested on: PC-3
assay: Cytotoxicity against human PC3 cells
Format: functional, cell-based
By convention, pIC50 is the negative base-10 log of a molar concentration.

Report value: pIC50, system: PC-3, compound: CC/C=C/[C@H](CC)C/C=C/[C@@]1(CC)C[C@H](CC)[C@H](CC(=O)O)OO1 [PLAKORTIDE M] 5.80

Attention now turns to another entry.
Please respond with reported pIC50 (system PC-3) for CC/C=C/[C@H](CC)C/C(=C/[C@@]1(CC)C[C@H](CC)[C@H](CC(=O)O)OO1)CC [PLAKORTIDE N] . 6.52
